Taken from BigSolDB 2.1.

# Run parameters: in ethyl acetate, 328.15 K
Observation type: solubility (mole fraction)

N#CCc1ccc([N+](=O)[O-])cc1; 0.246

---

# Run parameters: in ethanol, 318.15 K
Observation type: solubility (mole fraction)

N#CCc1ccc([N+](=O)[O-])cc1; 0.00986

---

# Run parameters: in isobutanol, 333.15 K
Observation type: solubility (mole fraction)

N#CCc1ccc([N+](=O)[O-])cc1; 0.0129

---

# Run parameters: in methanol, 298.15 K
Observation type: solubility (mole fraction)

N#CCc1ccc([N+](=O)[O-])cc1; 0.00547

---

# Run parameters: in 2-butanone, 318.15 K
Observation type: solubility (mole fraction)

N#CCc1ccc([N+](=O)[O-])cc1; 0.144
